property-name: AC50

Param request: AC50 | system Thromboxane A2 receptor (Homo sapiens) | item N=C(N)NC(=O)Cc1c(Cl)cccc1Cl; also: assay procedure not described here
> 30 µM

Param request: AC50 | system Thromboxane A2 receptor (Homo sapiens) | item Cc1nnc2n1-c1ccc(Cl)cc1C(c1ccccc1)=NC2; also: assay procedure not described here
> 30 µM

Param request: AC50 | system Thromboxane A2 receptor (Homo sapiens) | item CC1NCCOC1c1ccccc1 (stereo unspecified); also: assay procedure not described here
> 30 µM

Param request: AC50 | system Thromboxane A2 receptor (Homo sapiens) | item OCC(O)COc1ccc(Cl)cc1 (stereo unspecified); also: assay procedure not described here
> 10 µM

Param request: AC50 | system Thromboxane A2 receptor (Homo sapiens) | item CCc1ccc(C(=O)C(C)CN2CCCCC2)cc1 (stereo unspecified); also: assay procedure not described here
> 30 µM

Param request: AC50 | system Thromboxane A2 receptor (Homo sapiens) | item CC1Cc2ccccc2N1NC(=O)c1ccc(Cl)c(S(N)(=O)=O)c1 (stereo unspecified) [INDAPAMIDE]; also: assay procedure not described here
> 30 µM

Param request: AC50 | system Thromboxane A2 receptor (Homo sapiens) | item CCN(CC)CC(=O)Nc1c(C)cccc1C; also: assay procedure not described here
> 30 µM

Param request: AC50 | system Thromboxane A2 receptor (Homo sapiens) | item CC(=O)[C@@]1(O)CC[C@H]2[C@@H]3C[C@H](C)C4=CC(=O)C=C[C@]4(C)[C@@]3(F)[C@@H](O)C[C@@]21C; also: assay procedure not described here
> 10 µM

Param request: AC50 | system Thromboxane A2 receptor (Homo sapiens) | item CO/N=C(\C(=O)N[C@@H]1C(=O)N2C(C(=O)[O-])=C(C[n+]3ccc(N)n3CCO)CS[C@H]12)c1csc(N)n1; also: assay procedure not described here
> 30 µM

Param request: AC50 | system Thromboxane A2 receptor (Homo sapiens) | item CC[N+](CC)(CCNC(=O)C(=O)NCC[N+](CC)(CC)Cc1ccccc1Cl)Cc1ccccc1Cl; also: assay procedure not described here
> 30 µM

Param request: AC50 | system Thromboxane A2 receptor (Homo sapiens) | item Oc1cc(O)c2c(c1)O[C@H](c1ccc(O)c(O)c1)[C@@H](O)C2; also: assay procedure not described here
> 30 µM

Param request: AC50 | system Thromboxane A2 receptor (Homo sapiens) | item NS(=O)(=O)c1ccc(N2CCCCS2(=O)=O)cc1; also: assay procedure not described here
> 30 µM

Param request: AC50 | system Thromboxane A2 receptor (Homo sapiens) | item CC(=O)Oc1ccccc1C(=O)O; also: assay procedure not described here
> 30 µM

Param request: AC50 | system Thromboxane A2 receptor (Homo sapiens) | item CCN(C(C)=O)c1cccc(-c2ccnc3c(C#N)cnn23)c1; also: assay procedure not described here
> 30 µM

Param request: AC50 | system Thromboxane A2 receptor (Homo sapiens) | item O=C(O)CCCC[C@@H]1SC[C@@H]2NC(=O)N[C@@H]21; also: assay procedure not described here
> 10 µM

Param request: AC50 | system Thromboxane A2 receptor (Homo sapiens) | item CC(NC(C)(C)C)C(=O)c1cccc(Cl)c1 (stereo unspecified); also: assay procedure not described here
> 30 µM

Param request: AC50 | system Thromboxane A2 receptor (Homo sapiens) | item CC(=O)OCC1=C(C(=O)O)N2C(=O)[C@@H](NC(=O)CSc3ccncc3)[C@H]2SC1; also: assay procedure not described here
> 10 µM

Param request: AC50 | system Thromboxane A2 receptor (Homo sapiens) | item C=CC1=C(C(=O)O)N2C(=O)[C@@H](NC(=O)/C(=N\O)c3csc(N)n3)[C@H]2SC1; also: assay procedure not described here
> 30 µM

Param request: AC50 | system Thromboxane A2 receptor (Homo sapiens) | item Nc1nc(Cl)nc2c1ncn2[C@@H]1O[C@H](CO)[C@@H](O)[C@@H]1F; also: assay procedure not described here
> 30 µM

Param request: AC50 | system Thromboxane A2 receptor (Homo sapiens) | item NCCCNCCSP(=O)(O)O; also: assay procedure not described here
> 30 µM

Param request: AC50 | system Thromboxane A2 receptor (Homo sapiens) | item Nc1nnc(-c2cccc(Cl)c2Cl)c(N)n1; also: assay procedure not described here
> 30 µM

Param request: AC50 | system Thromboxane A2 receptor (Homo sapiens) | item COC(=O)[C@H]1[C@H]2C[C@@H]3c4[nH]c5ccccc5c4CCN3C[C@H]2C[C@@H](OC(=O)c2cc(OC)c(OC)c(OC)c2)[C@@H]1OC; also: assay procedure not described here
> 30 µM

Param request: AC50 | system Thromboxane A2 receptor (Homo sapiens) | item CC(=O)Oc1cccc2c1C(=O)c1c(OC(C)=O)cc(C(=O)O)cc1C2=O; also: assay procedure not described here
> 30 µM

Param request: AC50 | system Thromboxane A2 receptor (Homo sapiens) | item CC(=O)OCC(=O)[C@@]1(O)CC[C@H]2[C@@H]3CCC4=CC(=O)CC[C@]4(C)[C@@]3(F)[C@@H](O)C[C@@]21C [FLUDROCORTISONE ACETATE]; also: assay procedure not described here
> 30 µM

Param request: AC50 | system Thromboxane A2 receptor (Homo sapiens) | item CC(=O)N1CCN(c2ccc(OCC3COC(Cn4ccnc4)(c4ccc(Cl)cc4Cl)O3)cc2)CC1 (stereo unspecified); also: assay procedure not described here
> 10 µM

Param request: AC50 | system Thromboxane A2 receptor (Homo sapiens) | item COc1ccc(C(Cl)=C(c2ccc(OC)cc2)c2ccc(OC)cc2)cc1; also: assay procedure not described here
> 10 µM

Param request: AC50 | system Thromboxane A2 receptor (Homo sapiens) | item CCOC(=O)[C@H](CCc1ccccc1)N[C@@H](C)C(=O)N1Cc2ccccc2C[C@H]1C(=O)O; also: assay procedure not described here
> 30 µM

Param request: AC50 | system Thromboxane A2 receptor (Homo sapiens) | item CN1CCCN=C1/C=C/c1cccc(O)c1; also: assay procedure not described here
> 30 µM

Param request: AC50 | system Thromboxane A2 receptor (Homo sapiens) | item CC(C)C[C@H](NC(=O)[C@H](Cc1ccccc1)NC(=O)c1cnccn1)B(O)O; also: assay procedure not described here
> 30 µM

Param request: AC50 | system Thromboxane A2 receptor (Homo sapiens) | item CCCCC[C@H](O)CC[C@@H]1[C@H]2Cc3cccc(OCC(=O)O)c3C[C@H]2C[C@H]1O; also: assay procedure not described here
> 30 µM

Param request: AC50 | system Thromboxane A2 receptor (Homo sapiens) | item C[C@]12CCC(=O)C=C1[C@@H]1C[C@@H]1[C@H]1[C@@H]3[C@@H]4C[C@@H]4[C@@]4(CCC(=O)O4)[C@@]3(C)CC[C@@H]12; also: assay procedure not described here
> 30 µM

Param request: AC50 | system Thromboxane A2 receptor (Homo sapiens) | item COC(=O)CCc1ccc(OCC(O)CNC(C)C)cc1 (stereo unspecified); also: assay procedure not described here
> 30 µM

Param request: AC50 | system Thromboxane A2 receptor (Homo sapiens) | item CNCCc1ccccn1; also: assay procedure not described here
> 30 µM

Param request: AC50 | system Thromboxane A2 receptor (Homo sapiens) | item CCC1(c2ccccc2)C(=O)NCNC1=O; also: assay procedure not described here
> 10 µM

Param request: AC50 | system Thromboxane A2 receptor (Homo sapiens) | item COc1ccc2c3c1O[C@H]1C(=O)CC[C@H]4[C@@H](C2)N(C)CC[C@]314 [HYDROCODONE]; also: assay procedure not described here
> 30 µM

Param request: AC50 | system Thromboxane A2 receptor (Homo sapiens) | item Cc1cnc(Nc2ccc(OCCN3CCCC3)cc2)nc1Nc1cccc(S(=O)(=O)NC(C)(C)C)c1; also: assay procedure not described here
> 30 µM
